These entries and their values trace back to patent US8895585B2.

# Assay system: glutathione S-transferase (GST)-fused full-length human Syk protein (Homo sapiens, UniProt P43405)
# Construct: (GST)-fused full-length human Syk protein; GST (glutathione S-transferase); purchased Carna Biosciences
# Method notes: Syk enzyme assay
# Type: biochemical
# Condition description: Syk enzyme assay, Test Example 1; read-out: IC50 of Syk-inhibitory activity
pIC50: −log10 of the molar value.
Hi there, I'd appreciate the recorded pIC50 for every entry that follows.

Completed entries (count: 3):
NC(=O)c1cc(F)c(NC2CCCCC2N)nc1Nc1ccnc(-c2ccccc2F)c1 (stereo not shown)	> 8.00
CC(C)C[C@H](CN)Nc1nc(Nc2cnc3c(N)cccc3c2)c(C(N)=O)cc1F	> 8.00
CCNc1cc(Nc2nc(NC3CCCCC3N)c(F)cc2C(N)=O)ccn1 (stereo not shown)	7.30 to 8.00

Shift focus to the following entry.
Quick one: pIC50 for CC(C)C[C@@H](Nc1nc(Nc2ccc3c(c2)c(N2CCOCC2)nn3C)c(C(N)=O)cc1F)[C@H](C)N ?
> 8.00

* * *

# Assay system: glutathione S-transferase (GST)-fused full-length human Syk protein (Homo sapiens)
# Construct: (GST)-fused full-length human Syk protein; GST (glutathione S-transferase); purchased Carna Biosciences
# Method notes: Syk enzyme assay
# Format: biochemical
# Condition description: Syk enzyme assay, Test Example 1; read-out: IC50 of Syk-inhibitory activity
Hi there, I'd appreciate the recorded IC50 for every entry that follows.

Completed entries (count: 5):
NC(=O)c1cc(F)c(NC2CCCCC2N)nc1Nc1cncc(NC(=O)c2cccnc2)c1 (stereo not drawn)	10 to 50 nM
NC(=O)c1cc(F)c(N[C@@H](C(N)=O)c2ccccc2)nc1Nc1cnc2ccccc2c1	10 to 50 nM
NC(=O)c1cc(F)c(N[C@H](Cc2cnc[nH]2)C(N)=O)nc1Nc1ccc2ncccc2c1	100 to 1000 nM
COc1ncc(Nc2nc(NC3CCCCC3N)c(F)cc2C(N)=O)cc1C1CC1 (stereo not drawn)	10 to 50 nM
NC(=O)c1cc(F)c(N[C@@H]2CCCC[C@@H]2N)nc1Nc1cncc(COCc2ccccc2)c1 (relative stereo)	50 to 100 nM

Give IC50 for all compounds that follow.
1. Cn1nc(C2CC2)c2cc(Nc3nc(N[C@@H]4CCCC[C@@H]4N)c(F)cc3C(N)=O)ccc21
2. CCn1nc(F)c2cc(Nc3nc(N[C@H](CC(C)C)[C@H](C)N)c(F)cc3C(N)=O)ccc21

1: < 10 nM; 2: < 10 nM

Give IC50 for all compounds that follow.
1. CCCc1nn(CC)c2ccc(Nc3nc(N[C@@H]4CCCC[C@@H]4N)c(F)cc3C(N)=O)cc12
2. CCCC[C@H](CN)Nc1nc(Nc2cccc3c2cnn3C)c(C(N)=O)cc1F
3. COc1cc(Nc2nc(NCCC(N)=O)c(F)cc2C(N)=O)cc(OC)c1
4. Cn1nc(F)c2cc(Nc3nc(NC4CCCCC4N)c(F)cc3C(N)=O)ccc21 (stereo not drawn)
5. Cc1ccc(Nc2nc(N[C@@H](CN)CC(C)C)c(F)cc2C(N)=O)cn1
6. COc1nn(C)c2ccc(Nc3nc(N[C@H](C4CC4)[C@H](C)N)c(F)cc3C(N)=O)cc12

1: < 10 nM; 2: 10 to 50 nM; 3: 100 to 1000 nM; 4: < 10 nM; 5: 10 to 50 nM; 6: < 10 nM

Give IC50 for all compounds that follow.
1. CC(C)C[C@@H](Nc1nc(Nc2ccc3c(c2)c(C2CC2)nn3C)c(C(N)=O)cc1F)[C@H](C)N
2. NC(=O)c1cc(F)c(N[C@@H]2CCCC[C@@H]2N)nc1Nc1cncc(-c2cncs2)c1 (relative stereo)
3. NC(=O)c1cc(F)c(N[C@@H]2CCCC[C@@H]2N)nc1Nc1cncc(C2CC2)c1 (relative stereo) [Example 004-055]
4. NC(=O)c1cc(F)c(NC2CCCCC2N)nc1Nc1cncc(C2=CCCCC2)c1 (stereo not drawn)
5. COC(C)CCOc1ccc2ccc(Nc3nc(NC4CCCCC4N)c(F)cc3C(N)=O)cc2n1 (stereo not drawn)

1: < 10 nM; 2: < 10 nM; 3: < 10 nM; 4: < 10 nM; 5: < 10 nM

* * *

# Test system: THP-1 cells
# Method notes: TNFα generation assay
# Format: cell-based, human
# Condition description: Homo sapiens, THP-1, THP-1 cells; Table 22; read-out: IC50 in TNFα generation assay
pIC50: −log10 of the molar value.
Readout type: pIC50

Give pIC50 for all compounds that follow.
1. COCCn1ncc2c(Nc3nc(NC4CCCCC4N)c(F)cc3C(N)=O)cccc21 (stereo not shown)
2. CC(C)c1nn(C)c2ccc(Nc3nc(N[C@H](CC4CC4)[C@H](C)N)c(F)cc3C(N)=O)cc12
3. CC[C@@H](Nc1nc(Nc2ccnc(-c3ccco3)c2)c(C(N)=O)cc1F)[C@H](C)N
4. CCc1nn(C)c2ccc(Nc3nc(N[C@H](CC4CC4)[C@H](C)N)c(F)cc3C(N)=O)cc12
5. CCCC[C@@H](Nc1nc(Nc2cnc(C)c(-n3nccn3)c2)c(C(N)=O)cc1F)[C@H](C)N
6. CCC[C@@H](Nc1nc(Nc2cncc(-c3ccccc3)c2)c(C(N)=O)cc1F)[C@H](C)N

["6.70 to 6.89", "6.70 to 6.89", "6.89 to 7.19", "6.70 to 6.89", "6.89 to 7.19", "6.70 to 6.89"]

* * *

Hi there, I'd appreciate the recorded IC50 for every entry that follows.
# Assay system: glutathione S-transferase (GST)-fused full-length human Syk protein (Homo sapiens, UniProt P43405)
# Construct: (GST)-fused full-length human Syk protein; GST (glutathione S-transferase); purchased Carna Biosciences
# Method notes: Syk enzyme assay
# Type: biochemical
# Condition description: Syk enzyme assay, Test Example 1; read-out: IC50 of Syk-inhibitory activity

Completed entries (count: 3):
COc1cc(Nc2nc(N[C@@H](C(N)=O)C(C)(C)C)c(F)cc2C(N)=O)cc(OC)c1	100 to 1000 nM
COc1ncc(Nc2nc(N[C@@H]3CCCC[C@@H]3N)c(F)cc2C(N)=O)cc1-n1ccnn1	10 to 50 nM
NC(=O)c1cc(F)c(N[C@@H]2CCCC[C@@H]2N)nc1Nc1cnc(N2CCOCC2)c(-n2ccnn2)c1	100 to 1000 nM

Shift focus to the following entry.
Quick one: IC50 for CCC[C@@H](Nc1nc(Nc2ccnc(OC)c2)c(C(N)=O)cc1F)[C@@H](N)CC ?
< 10 nM

* * *

Hi there, I'd appreciate the recorded pIC50 for every entry that follows.
# Tested on: THP-1 cells
# Method notes: TNFα generation assay
# Assay type: cell-based, human
# Condition description: Homo sapiens, THP-1, THP-1 cells; Table 22; read-out: IC50 in TNFα generation assay
pIC50: −log10 of the molar value.

Give pIC50 for all compounds that follow.
1. NC(=O)c1cc(F)c(N[C@@H]2CCCC[C@@H]2N)nc1Nc1cncc(-c2ccc(F)cc2F)c1 (relative stereo)
2. NC(=O)c1cc(F)c(N[C@@H]2CCCC[C@@H]2N)nc1Nc1cncc2[nH]ccc12 (relative stereo)
3. CC(N)CNc1nc(Nc2ccc3ncccc3c2)c(C(N)=O)cc1F (stereo not shown)
4. COc1ccc2cc(Nc3nc(N[C@@H](CN)CC(C)C)c(F)cc3C(N)=O)cnc2c1
5. COc1nn(C)c2ccc(Nc3nc(N[C@H](CC4CC4)[C@H](C)N)c(F)cc3C(N)=O)cc12

["6.70 to 6.89", "> 7.19", "> 7.19", "6.89 to 7.19", "6.89 to 7.19"]

Give pIC50 for all compounds that follow.
1. Cc1cc(Nc2nc(N[C@@H]3CCCC[C@@H]3N)c(F)cc2C(N)=O)cnc1-n1cccn1
2. CC[C@H](N)[C@@H](CC)Nc1nc(Nc2ccc3c(cnn3CC)c2)c(C(N)=O)cc1F

6.70 to 6.89
6.89 to 7.19

Give pIC50 for all compounds that follow.
1. NC(=O)c1cc(F)c(NC2CCCCC2N)nc1Nc1ccnc(N2CCCC2=O)c1 (stereo not shown)
2. CC[C@@H](Nc1nc(Nc2cncc(-c3cccc(OC)c3)c2)c(C(N)=O)cc1F)[C@H](C)N
3. CCOc1ncc(Nc2nc(N[C@@H]3CCCC[C@@H]3N)c(F)cc2C(N)=O)cc1N1CCOCC1

6.89 to 7.19
> 7.19
6.89 to 7.19

* * *

# Assay system: glutathione S-transferase (GST)-fused full-length human Syk protein (Homo sapiens, UniProt P43405)
# Construct: (GST)-fused full-length human Syk protein; GST (glutathione S-transferase); purchased Carna Biosciences
# Method notes: Syk enzyme assay
# Type: biochemical
# Condition description: Syk enzyme assay, Test Example 1; read-out: IC50 of Syk-inhibitory activity
Hi there, I'd appreciate the recorded IC50 for every entry that follows.

Completed entries (count: 4):
CCC[C@@H](Nc1nc(Nc2ccnc(-n3ccnn3)c2)c(C(N)=O)cc1F)[C@H](C)N [Example 006-299]	< 10 nM
NC(=O)c1cc(F)c(NC[C@@H](N)c2cccnc2)nc1Nc1ccc2ncccc2c1 [Example 014-018]	10 to 50 nM
CCC[C@@H](Nc1nc(Nc2ccnc(-c3cccc(OC)c3)c2)c(C(N)=O)cc1F)[C@H](C)N [Example 006-334]	< 10 nM
NC(=O)c1cc(F)c(N[C@@H]2CCCC[C@@H]2N)nc1Nc1cncc(-c2ccoc2)c1 (relative stereo) [Example 004-078]	< 10 nM

Give IC50 for all compounds that follow.
1. Cn1c(=O)ccc2cc(Nc3nc(NC4CCCCC4N)c(F)cc3C(N)=O)cnc21 (centres unmarked) [Example 002-115]
2. CN(C)c1cccc2cc(Nc3nc(N[C@@H]4CCCC[C@@H]4N)c(F)cc3C(N)=O)cnc12 [Example 004-032]
3. COc1cc(Nc2nc(NC3CCN(C(=O)OCc4ccccc4)CC3N)c(F)cc2C(N)=O)ccn1 (centres unmarked) [Example 006-530]
4. NC[C@H](Nc1nc(Nc2cncc(-c3ccccc3)c2)c(C(N)=O)cc1F)C1CC1 [Example 006-337]

1: 10 to 50 nM; 2: < 10 nM; 3: < 10 nM; 4: 10 to 50 nM
